Values were extracted from PubChem BioAssay AID463173.

Overview of reported survival across a group of compounds:
- System: Wild type
- procedure.details: S. aureus survival, RN4220 and DeltatarO strains – OD600, teichoic acid synthesis inhibitors, primary screen (AID 463173)
- condition.notes: S. aureus RN4220 wild type/DeltatarO growth, OD600, 18 h, stronger effect = lower value, screened at 18.75 µg/mL (by protocol)
The whole screen tested about 52,000 compounds, of which about 1,700 (3.3%) were called active. This is one part of a sample in which actives are shown more often than they occur.
attribute.measured: survival (%)

| compound | observed.value |
| --- | --- |
| COc1cccc(NC(=O)CSC2=Nc3ccccc3N=C(c3ccc(F)cc3)C2)c1 | 69 |
| O=C(COCc1cc(-c2cccs2)on1)Nc1cccc(Cl)c1Cl | 59 |
| O=C(COCc1cc(-c2ccco2)on1)Nc1cccc(Cl)c1Cl | 0 |
| Cc1ccc(CSc2cn(CC(=O)N3CCCCC3)c3ccccc23)cc1 | 90 |
| CCOc1ccc(NC(=O)CSc2ncc3c(n2)-c2cc(Cl)ccc2N(C)S3(=O)=O)cc1 | -3 |
| CN1C=CC=C/C1=C1\SC(=S)N(C2CCCCC2)C1=O | 120 |
| Cc1ccc(C(c2sc3nc(-c4ccco4)nn3c2O)N2CCOCC2)cc1 (stereo not given) | 77 |
| O=C(COCc1cc(-c2ccc(F)cc2)on1)Nc1cccc(Cl)c1Cl | 64 |
| O=S(=O)(c1ccc(Br)cc1)c1nnn2c1nc(NCc1ccc3c(c1)OCO3)c1sccc12 | 90 |
| CCOc1cccc2sc(NC(=O)c3ccc(S(=O)(=O)N4CCCc5ccccc54)cc3)nc12 | 88 |
| Cc1n[nH]c(=S)n1CC(=O)N1c2ccccc2CCc2ccccc21 | 102 |
| COc1cc(OC)c(NC(=O)c2cnn(-c3cccc(Cl)c3C)c2C2CCN(C(=O)OC(C)(C)C)CC2)cc1Cl | 53 |
| COc1cccc(NC(=O)CSc2ncc3c(n2)-c2ccc(Cl)cc2N(C)S3(=O)=O)c1 | 10 |
| COc1cccc(CNC(=O)CCCN2C(=O)CSc3c2c(C)nn3-c2ccccc2)c1 | 89 |
| Cc1ccc(O)c(NC(=O)COCc2cc(-c3ccco3)on2)c1 | 87 |
| CCOc1ccc(-c2nnc(SCC(=O)Nc3cccc(OC)c3)nc2-c2ccc(OCC)cc2)cc1 | -3 |
| COc1ccc(-c2nnc(SCC(=O)Nc3cccc(C(F)(F)F)c3)nc2-c2ccc(OC)cc2)cc1 | 79 |
| COc1cc(NC(=O)CSc2ncc3c(n2)-c2ccc(Cl)cc2N(Cc2ccccc2)S3(=O)=O)cc(OC)c1 | 65 |
| CCc1cccc(NC(=O)CSc2ncc3c(n2)-c2cc(Cl)ccc2N(C)S3(=O)=O)c1 | 65 |
| COc1ccccc1NC(=O)c1sc2nc(C)c(C(=O)Nc3ccc(C)cc3C)c(-c3ccco3)c2c1N | 73 |

====

Overview of reported survival across a group of molecules:
- Test system: Wild type
- procedure.details: S. aureus survival, RN4220 and DeltatarO strains – OD600, teichoic acid synthesis inhibitors, primary screen (AID 463173)
- condition.notes: S. aureus RN4220 wild type/DeltatarO growth, OD600, 18 h, stronger effect = lower value, screened at 18.75 µg/mL (by protocol)
The campaign covered roughly 52,000 compounds. About 1,700 (3.3%) were called active. The full list was thinned out, with actives kept by preference.

| molecule | value.units | survival |
| --- | --- | --- |
| CCOC(=O)C1CCCN(c2c(C(=O)c3ccccc3)cnc3ccc(F)cc23)C1 (stereo not given) | % | 22 |
| Cc1ccc(NC(=O)c2cc(S(=O)(=O)N3CCCCC3)c[nH]2)cc1N(C)C | % | 87 |
| CCOC(=O)C1CCCN(C(=O)c2ccc(OCC)cc2)C1 (stereo not given) | % | 117 |
| CCOc1ccc(S(=O)(=O)c2c(C(=O)c3ccc(C)c(C)c3)cnc3ccccc23)cc1 | % | 80 |
| CCOC(=O)C1CCCN(c2c(C(=O)c3ccc(OCC)cc3)cnc3ccccc23)C1 (stereo not given) | % | 0 |

====

- Test system: Wild type
- procedure.details: S. aureus survival, RN4220 and DeltatarO strains – OD600, teichoic acid synthesis inhibitors, primary screen (AID 463173)
- condition.notes: S. aureus RN4220 wild type/DeltatarO growth, OD600, 18 h, screened at 18.75 µg/mL (by protocol)
In all, about 52,000 compounds went through this assay and about 1,700 (3.3%) were called active. No stated cut-off is given here; in the data, active means survival mostly below about 52% (no sharp cut-off); inactive means mostly above about 56%. The entries come from a sample that favours actives as a whole.
Labels: true for active, false for inactive

| compound | qualitative.label |
| --- | --- |
| Cn1c(=O)n(C)c2cc(N3CCOCC3)c(NC(=O)c3ccc(C(C)(C)C)cc3)cc21 | false |
| COC(=O)c1sc(-c2ccccc2)cc1NC(=O)Nc1ccc(Cl)cc1 | true |
| COC(=O)c1sc(-c2ccccc2)cc1NC(=O)Nc1ccc(F)cc1 | true |
| COc1ccc(NS(=O)(=O)c2ccc3c(c2)[C@H]2C=CC[C@H]2[C@@H](c2ccc(C(=O)O)cc2)N3)cc1 | false |
| CCOc1ccc(-c2cc(NC(=O)Nc3cccc(C(C)=O)c3)c(C(=O)OC)s2)cc1 | false |
| CCSc1nsc(NC(=O)Nc2cccc(F)c2)n1 | true |
| COC(=O)c1sc(-c2ccccc2)cc1NC(=O)c1cccc(Cl)c1 | false |
| Cc1cccc(-c2nc3ccccc3n3c(-c4ccccc4)c4c(=O)n(C)c(=O)n(C)c4c23)c1 | false |
| O=C(CSc1nnc(NC(=O)Nc2ccccc2)s1)Nc1cccc(F)c1 | false |
| CCOc1ccc(-c2cc(NC(=O)Nc3ccc(Cl)cc3)c(C(=O)OC)s2)cc1 | false |
| Cc1ccc(NC(=O)N2CC3CCCN3c3ccccc32)cc1C (configuration not stated) | true |
| Cc1ccc(NC(=O)N2CC3CCCN3c3ccccc32)c(C)c1 (configuration not stated) | false |
| Cc1ccc(NC(=O)N2CC3CCCN3c3ccccc32)cc1Cl (configuration not stated) | false |
| CCOc1ccc(-c2cc(NC(=O)Nc3ccccc3Cl)c(C(=O)OC)s2)cc1 | false |
| C=CCC1Cc2ccccc2C(CC=C)N1 (configuration not stated) | false |
| Cc1ccc(C)c(NC(=O)Cn2c(=O)n(Cc3ccco3)c(=O)c3oc4ccccc4c32)c1 | false |
| Cc1cc2c(cc1S(=O)(=O)NCc1ccc(F)cc1)OCC(=O)N2 | false |
| CCCCOc1cccc(C2c3c(oc4ccccc4c3=O)C(=O)N2c2ccccn2)c1 (configuration not stated) | false |
| COc1ccccc1-c1ncnn1-c1sc2c(c1C#N)CCCCC2 | true |
| CCC/C(O)=C1\C(=O)CC(C)(C)CC1=Nc1ccncc1 | false |
| CC(=O)Nc1cccc(NC(=O)c2c(-c3ccccc3)c(-c3ccccc3)nn(C)c2=O)c1 | false |
| Cc1ccc(C)c(Cn2c(C(C)NC(=O)c3ccc(F)cc3)nc3ccccc32)c1 (configuration not stated) | false |

====

Overview of reported survival across a group of compounds:
- System: Wild type
- procedure.details: S. aureus survival, RN4220 and DeltatarO strains – OD600, teichoic acid synthesis inhibitors, primary screen (AID 463173)
- condition.notes: S. aureus RN4220 wild type/DeltatarO growth, OD600, 18 h, stronger effect = lower value, screened at 18.75 µg/mL (by protocol)
Screen size: about 52,000 compounds; about 1,700 (3.3%) were called active. This is one part of a sample in which actives are shown more often than they occur.

| smiles.data | survival (%) |
| --- | --- |
| CC1=C(c2ccc(Cl)cc2)S(=O)(=O)N=C1N1CCC(C(=O)NCCc2ccco2)CC1 | 55 |
| CC1=C(c2ccc(C(C)C)cc2)S(=O)(=O)N=C1N1CCC(C(=O)NCCc2ccco2)CC1 | 1 |
| CC1=C(c2ccc(C)c(C)c2)S(=O)(=O)N=C1N1CCC(C(=O)N2CCC(C)CC2)CC1 | 81 |
| CC1=C(c2ccc(C)c(C)c2)S(=O)(=O)N=C1N1CCC(C(=O)N2CCCCC2)CC1 | 129 |
| COc1ccc(-c2nc(S(=O)(=O)c3ccc(Cl)cc3)c(N3CCCCCC3)o2)cc1 | 64 |
| COC(=O)c1ccc([C@@H]2Nc3c(cccc3C(F)(F)F)[C@@H]3C=CC[C@@H]32)cc1 | 3 |
| CC1=C(c2ccc(C)c(C)c2)S(=O)(=O)N=C1N1CCC(C(=O)N2CCC(C(N)=O)CC2)CC1 | -4 |
| COC(=O)c1ccc([C@H]2Nc3ccc(S(=O)(=O)Nc4cccc(C)c4)cc3[C@H]3C=CC[C@H]32)cc1 | 68 |
| CCc1ccc(C2=C(C)C(N3CCC(C(=O)NCc4ccccc4)CC3)=NS2(=O)=O)cc1 | 67 |

====

- System: Wild type
- procedure.details: S. aureus survival, RN4220 and DeltatarO strains – OD600, teichoic acid synthesis inhibitors, primary screen (AID 463173)
- condition.notes: S. aureus RN4220 wild type/DeltatarO growth, OD600, 18 h, screened at 18.75 µg/mL (by protocol)
Among all 52,000 compounds or so, about 1,700 (3.3%) were called active. Rule as the data show it: active = survival mostly below about 52% (no sharp cut-off); inactive = mostly above about 56%. The sample holds actives, similar compounds and a random draw of the others, so the mix is not that of the screen.
Labels: active, inactive

| compound | qualitative.label |
| --- | --- |
| COc1ccccc1-n1nc(-c2ccccc2)c2cnc3c(F)cc(F)cc3c21 | inactive |
| COc1ccc(C2=Nc3ccccc3N(CC(=O)Nc3cccc(C(C)=O)c3)C(=O)C2)cc1 | inactive |
| COc1ccccc1NC(=O)CSc1nncn2c1cc1sccc12 | inactive |
| CN(Cc1ccccc1)S(=O)(=O)c1ccc(F)c(C(=O)Nc2cccc(Cl)c2Cl)c1 | inactive |
| Cc1ccc(Sc2ccc(N3CCCC(C(=O)Nc4ccc(Cl)cc4)C3)nn2)cc1 (stereo not given) | inactive |
| Cc1ccc2oc(=O)c(-c3nc(-c4cccs4)no3)cc2c1 | inactive |
| CN(Cc1ccccc1)S(=O)(=O)c1ccc(F)c(C(=O)Nc2cc(Cl)cc(Cl)c2)c1 | inactive |
| CCOc1ccc(NC(=O)C2CCCN(c3ccc(Sc4ccc(C)cc4)nn3)C2)cc1 (stereo not given) | active |
| O=C(Nc1cc(Cl)ccc1Cl)c1cc(S(=O)(=O)NCCc2ccccc2)ccc1F | inactive |
| CN(C)CCCN(C(=O)c1cccs1)c1nc2ccc(F)cc2s1 | inactive |
